Study system: T1, cynomolgus monkey C16orf54 (cynomolgus monkey (Macaca fascicularis), UniProt Q6UWD8 1-224 (human entry))
T1 construct: also called cyno C16orf54; cyno-C16orf54
T1 chain: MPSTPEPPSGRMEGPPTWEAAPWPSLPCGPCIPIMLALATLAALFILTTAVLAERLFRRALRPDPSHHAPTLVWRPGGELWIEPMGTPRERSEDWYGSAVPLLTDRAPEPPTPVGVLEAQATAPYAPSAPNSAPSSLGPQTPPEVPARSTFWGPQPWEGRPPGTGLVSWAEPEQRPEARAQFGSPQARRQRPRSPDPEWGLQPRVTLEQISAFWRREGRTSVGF
Protocol description: flow cytometry, 10 ug/ml antibody, F279-cyno-C16orf54 cells
Recorded metric: Median fold change relative to IgG control (fold)

INSERT INTO assay_data (binder, value) VALUES
  ('R29-7-2A (antibody, V domains shown, Murine monoclonal IgG2b from a hybridoma) VH: EVQLVESGGGLIQPKGSLKLSCVASGFSFNTHAMNWVRQAPGKGLEWVARIRSKSNNYARYYADSVKDRFTISRDDSQSILYLQMNNLKTEDTAMYYCVKQGDGGFAYWGQGTLVTVSA VL: DIVMSQSPSSLAVSVGEKVTMSCKSSQSLLYSSNQKNYLAWYQQRPGQSPKLLIYWASARESGVPDRFTGSGSGTDFTLTISSVKAEDLAVYYCQQYYSYPPTFGAGTKVELK', 78.5),
  ('R29-8-50C (antibody, V domains shown, Murine monoclonal antibody from a hybridoma) VH: EVKLVESGGGLVKPGGSLKFSCAASGFTFSSYAVSWVRQTPEKRLEWVASITSGGRTYYPDSVKGRFTISRDNARSMLYLHMSSLRSEDTAMYYCTRGWDENDLWGQGTTLTVSS VL: DVVMTQTPLSLPVSLGDQASISCRSSQSLVYSNGNTYLHWYLQRPGQSPQLLIYKVSNRFSGVPDRFSGSGSGTDFTLKISRVEAEDLGVYFCSQTTHVPWTFGGGTKLEIK', 3.2),
  ('R29-8-36C (antibody, V domains shown, Murine monoclonal antibody from a hybridoma) VH: EVKLVESGGGLVKPGGSLKFSCAASGFTFSSYAVSWVRQTPEKRLEWVASITSGGRSYYPDSVKGRFTISRDNARSMLYLHMSSLRSEDTAMYYCTRGWDENDLWGQGTTLTVSS VL: DVVMTQTPLSLFVSLGDQASISCRSSQSLLYSNGNTYLHWYLQRPGQSPQLLIYKVSNRFSGVPDRFSGSGSGTDFTLKISRVEAEDLGVYFCSQTTHVPWTFGGGTKLEIK', 3.6),
  ('R29-67-7A (antibody, V domains shown, Murine monoclonal IgG2a from a hybridoma) VH: DVQLQESGPGLVKPSQSLSLTCTVTGYSITSDYAWNWIRQFPGNKLEWMGYINYSGRTRYNPSLNSRISLTRDTSTNQFFLQLNSVTTEDTATYYCARENYDYEFYAMDYWGQGTSVTVSS VL: DIVMSQSPSSLAVSVGEKVTMSCKSSQNLLYSSNQKNYLAWYQQKPGQSPKLLIYWASTRESGVPDRFTGSGSGTDFTLTISSVKAEDLAVYYCQQYYIYRTFGGGTKLEIK', 35.6);

Every entry's value here was drawn from patent US20150231240A1.
